# System: LoVo
# protocol_summary: The compound was tested in vitro for cytotoxic activity against Doxorubicin resistant LoVo/Dx human colon adenocarcinoma cell line
# Format: functional, cell-based
Flag rule - EC50 less than 1000 nM flags 1; the remaining entries get 0.

Could you please tell me whether EC50 recorded for CN(C)CCCNc1ccc2c(=O)n(CCN(C)C)c(=O)n3c4ccccc4c(=O)c1c23.Cl is less than 1000 nM?
1

Could you please tell me whether EC50 recorded for CCN(CC)CCNc1ccc2c(=O)n(CCN(C)C)c(=O)n3c4ccccc4c(=O)c1c23.Cl is less than 1000 nM?
1

Could you please tell me whether EC50 recorded for Cl.O=C1c2ccccc2C(=O)c2c(NCCNCCO)ccc(NCCNCCO)c21 is less than 1000 nM?
0

Could you please tell me whether EC50 recorded for CN(C)CCn1c(=O)c2ccc(NCCNCCO)c3c(=O)c4ccccc4n(c1=O)c23.Cl is less than 1000 nM?
1

Could you please tell me whether EC50 recorded for CN(C)CCn1c(=O)c2ccc(Cl)c3c(=O)c4ccccc4n(c1=O)c23.Cl is less than 1000 nM?
0

----------
Would you kindly list pEC50 for each of these compounds?
# System: L1210
# protocol_summary: The compound was tested in vitro for cytotoxic activity against L1210 Murine leukemia cell line
# Assay type: functional, cell-based
# condition_context: Mus musculus
Worth noting: pEC50 values are minus log10 of concentrations stated in mol/L.

State its pEC50: CN(C)CCn1c(=O)c2ccc(NCCN3CCNCC3)c3c(=O)c4ccccc4n(c1=O)c23.Cl
6.68

State its pEC50: CN(C)CCNc1ccc2c(=O)n(CCN(C)C)c(=O)n3c4ccccc4c(=O)c1c23.Cl
8.66

State its pEC50: CN(C)CCCNc1ccc2c(=O)n(CCN(C)C)c(=O)n3c4ccccc4c(=O)c1c23.Cl
7.20

State its pEC50: CCN(CC)CCNc1ccc2c(=O)n(CCN(C)C)c(=O)n3c4ccccc4c(=O)c1c23.Cl
7.28

State its pEC50: Cl.O=C1c2ccccc2C(=O)c2c(NCCNCCO)ccc(NCCNCCO)c21
6.46

State its pEC50: CN(C)CCn1c(=O)c2ccc(NCCNCCO)c3c(=O)c4ccccc4n(c1=O)c23.Cl
8.35

State its pEC50: CN(C)CCn1c(=O)c2ccc(Cl)c3c(=O)c4ccccc4n(c1=O)c23.Cl
6.30

Hey, just so you know, these numbers are from ChEMBL document CHEMBL1128520.
